src = patent US12329788B2

- System: Clostridium XIVa cluster
- protocol_text: i-screen microbiota composition by 16S rRNA V4 sequencing, Clostridium XIVa
- Assay type: cell-based, human
- recorded_conditions: microbiota + DSM 32315; 24 h SIEM; amino acids 3.5 mM, dipeptides 7 mM
- Procedure: To determine the effect of the probiotic strains Bacillus subtilis DSM 32315, Bacillus subtilis DSM 32540, Bacillus licheniformis DSM 32314 and Bacillus amyloliquefaciens CECT 5940 on adult colonic microbiota, an intestinal screening model was used (i-screen, TNO, the Netherlands). […] For the i-screen fermentations, the precultured standardized fecal inoculum was diluted 50 times in 1350 μl modified SIEM. […] After incubation, bacterial density was determined by optical density measurement at 600 nm. […]
Where a SMILES comes first, the peptide text is derived from it.
measured_property: Clostridium_XIVa relative abundance (%)
Respond numerically; units are % and should not be typed.

In the examples that follow, each entry is paired with its recorded Clostridium_XIVa relative abundance.
compound: NC(=O)CC[C@H](N)C(=O)O [Gln, glutamine, reference compound]
Clostridium_XIVa relative abundance (%): 2
//
compound: N[C@@H](CCC(=O)O)C(=O)O [Glu, glutamic acid, reference compound]
Clostridium_XIVa relative abundance (%): 3
//
compound: CC(=O)N[C@@H](C)C(=O)N[C@@H](CCC(N)=O)C(=O)O [Ac-Ala-Gln] (Ac-Ala-Gln-OH)
Clostridium_XIVa relative abundance (%): 2
//
compound: C[C@H](N)C(=O)N[C@@H](CCC(N)=O)C(=O)O [Ala-Gln, Alanine-Glutamine] (H-Ala-Gln-OH)
Clostridium_XIVa relative abundance (%): 4

Next compound, please.
Exam item: Query (compound): NCC(=O)O.N[C@@H](CCC(=O)O)C(=O)O ; field requested: Clostridium_XIVa relative abundance
Marked response: 8

###

- Tested on: Clostridium XI cluster
- protocol_text: i-screen microbiota composition by 16S rRNA V4 sequencing, Clostridium XI
- Type: cell-based, human
- recorded_conditions: microbiota, no probiotic cells; 24 h SIEM; amino acids 3.5 mM, dipeptides 7 mM
Where a SMILES comes first, the peptide text is derived from it.
Item-by-item account of Clostridium_XI relative abundance
State the answer as a number, implicitly in %.

Past entries and their recorded results:
molecule: N[C@@H](CCC(=O)O)C(=O)O [Glu, glutamic acid, reference compound]
test_system: Clostridium XI cluster
measured_property: Clostridium_XI relative abundance
quantitative_readout: 27
--
molecule: NC(=O)CC[C@H](N)C(=O)O [Gln, glutamine, reference compound]
test_system: Clostridium XI cluster
measured_property: Clostridium_XI relative abundance
quantitative_readout: 28
--
molecule: C[C@H](N)C(=O)N[C@@H](CCC(N)=O)C(=O)O [Ala-Gln, Alanine-Glutamine] (H-Ala-Gln-OH)
test_system: Clostridium XI cluster
measured_property: Clostridium_XI relative abundance
quantitative_readout: 0
--
molecule: NCC(=O)O.N[C@@H](CCC(=O)O)C(=O)O
test_system: Clostridium XI cluster
measured_property: Clostridium_XI relative abundance
quantitative_readout: 0

// below: Clostridium_XI relative abundance requested for another molecule
Exam item: So what does the record say about Clostridium_XI relative abundance for CC(=O)N[C@@H](C)C(=O)N[C@@H](CCC(N)=O)C(=O)O [Ac-Ala-Gln] (Ac-Ala-Gln-OH) ?
Marked response: 27
